- Tested on: DLD1
- Measurement notes: TCF/Wnt firefly luciferase reporter signal relative to plate median (fraction of plate median); higher = higher Wnt reporter signal
- Condition description: 5 µM; treatment time 24 h; reporter: 7TFP
Quick rule: TCF/Wnt firefly luciferase reporter signal of at least 0.9 means True, below that means False.

Compound: N[C@@H](Cc1c[nH]c2ccccc12)C(=O)O
Tested target: DLD1
Qualitative label: True

Compound: CC(C)NCC(O)COc1ccc(CC(N)=O)cc1 (stereo unspecified)
Tested target: DLD1
Qualitative label: True

Compound: N[C@@H](Cc1cc(I)c(Oc2ccc(O)c(I)c2)c(I)c1)C(=O)O [LIOTHYRONINE (L- isomer) SODIUM]
Tested target: DLD1
Qualitative label: True

Compound: FC(F)(F)COCC(F)(F)F
Tested target: DLD1
Qualitative label: False

Compound: Cc1cc(C2CCCCC2)n(O)c(=O)c1
Tested target: DLD1
Qualitative label: False

Compound: CC1(C)S[C@@H]2[C@H](NC(=O)Cc3ccccc3)C(=O)N2[C@H]1C(=O)O
Tested target: DLD1
Qualitative label: True

Compound: C[N+](C)(C)CCO.[Cl-]
Tested target: DLD1
Qualitative label: True

Compound: CC(C)Oc1ccc2c(=O)c(-c3ccccc3)coc2c1
Tested target: DLD1
Qualitative label: True

Compound: CC(=O)NCCCCCC(=O)O
Tested target: DLD1
Qualitative label: True

Compound: Cc1cc(C(C)(C)C)c(O)c(C(C)(C)C)c1
Tested target: DLD1
Qualitative label: True

Compound: CC(C)=CCc1c2c(c(O)c3c(=O)c(O)c(-c4ccccc4)oc13)C=CC(C)(C)O2
Tested target: DLD1
Qualitative label: True

Compound: CN(C)CCCN1c2ccccc2Sc2ccc(C(F)(F)F)cc21
Tested target: DLD1
Qualitative label: True

Compound: CC(=O)Oc1c(-c2ccccc2)oc2c(CC=C(C)C)c3c(c(OC(C)=O)c2c1=O)C=CC(C)(C)O3
Tested target: DLD1
Qualitative label: False

Compound: O=c1ccc2ccc(O)cc2o1
Tested target: DLD1
Qualitative label: True
